experimental-target: T1, biotinylated goat anti-human kappa light chain
T1 construct: positive control of the ELISA
measurement-description: ELISA, positive control; note: test concentration or dose not given here

binder	uom	optical density
370_B03 (antibody, V domains shown, Group III) VH: EVQLLESGGGLVQPGGSLRLSCAASGFTFSSYSMNWVRQAPGKGLEWVANINYNGGYTGYADSVKGRFTISRDNSKNTLYLQMNSLRAEDTAVYYCARGANWHDTALDYWGQGTLVTVSS VL: DIQMTQSPSSLSASVGDRVTITCRASQSILSYLNWYQQKPGKAPKLVIYAATSRASGVPSRFSGSGSGTDFTLTISSLQPEDFATYYCQQSYNNPLTFGGGTKVEIK	OD	3.61
375_F07 (antibody, V domains shown, Group III) VH: EVQLLESGGGLVQPGGSLRLSCAASGFTFSDYSMNWVRQAPGKGLEWVSNINYNGGYTGYADSVKGRFTISRDNSKNTLYLQMNSLRAEDTAVYYCARGANWHDTALDYWGQGTLVTVSS VL: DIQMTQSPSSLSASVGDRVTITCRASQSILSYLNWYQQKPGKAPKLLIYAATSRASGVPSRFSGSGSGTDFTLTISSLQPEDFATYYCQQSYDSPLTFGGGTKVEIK	OD	3.22
